Provenance of the data: ChEMBL document CHEMBL4699540

- method: Metabolic stability in mouse liver microsomes assessed as compound remaining; further: time not given here
- Type: ADME, Microsome
Field: Stabilty. Provide a value for each of the molecules that follow.
Numbers only, in %.

Sample records with Stabilty:
>  <smiles>
Nc1cc([C@H](CCN[C@H]2CCc3ccccc32)c2ccccc2)c2nn[nH]c2n1

>  <readout-unit>
%

>  <Stabilty>
51

$$$$
>  <smiles>
Nc1cc(Cc2ccccc2)c2nn[nH]c2n1

>  <readout-unit>
%

>  <Stabilty>
39

$$$$
>  <smiles>
Nc1nc(OCc2ccccc2)c2[nH]nnc2n1

>  <readout-unit>
%

>  <Stabilty>
80

$$$$

Would you be so kind as to report Stabilty for each listed record?
1. Nc1cc([C@H](CCNC23CCC(c4ccccc4)(CC2)CC3)c2ccccc2)c2nn[nH]c2n1
2. Nc1cc([C@H](CCCc2ccccc2)c2ccccc2)c2nn[nH]c2n1
3. Nc1cc([C@H](CCOCc2ccccc2)c2ccccc2)c2nn[nH]c2n1

Data returned:
1. 85
2. 1
3. 1

// for each molecule below, give its Stabilty
1. Nc1cc([C@H](CCN[C@@H]2CC[C@@H](c3ccccc3)C2)c2ccccc2)c2nn[nH]c2n1
2. Nc1cc([C@H](CCNCc2ccccc2)c2ccccc2)c2nn[nH]c2n1
3. Nc1cc([C@H](CCN[C@H]2C[C@@H](c3ccccc3)c3ccccc32)c2ccccc2)c2nn[nH]c2n1
4. Nc1cc([C@H](CCN[C@@H]2CC[C@@H](c3ccccc3)c3ccccc32)c2ccccc2)c2nn[nH]c2n1

Data returned:
[45, 85, 28, 10]
